# System: 519858-162-T-J1-PDC complex spheroid growth, % test/control
# PROTOCOL NOTES: Anticancer human tumor 519858-162-T-J1-PDC patient-derived colon adenocarcinoma cell line growth inhibition [Asc]
# SETUP CONDITIONS: curve of first compound; second compound 0.03 µM
pIC50: −log10 of the molar value.
MEASUREMENT KIND: pIC50

Input line: Need pIC50, item Cc1nc(N2CCC3(CC2)COC(C)C3N)c(CO)nc1Sc1ccnc(N)c1Cl (stereo not drawn) + CCN1C(C(=O)NC23CCC(C(=O)O)(CC2)CC3)C(c2cccc(Cl)c2F)C2(C(=O)Nc3cc(Cl)ccc32)C12CCCCC2
Output line: < 5.52

Input line: Need pIC50, item NC1CCC(NC2CC2c2ccccc2)CC1 (stereo not drawn) + CCN1C(C(=O)NC23CCC(C(=O)O)(CC2)CC3)C(c2cccc(Cl)c2F)C2(C(=O)Nc3cc(Cl)ccc32)C12CCCCC2
Output line: < 7.00

Read the next record carefully.
Input line: Need pIC50, item O=C(c1cc(Cc2n[nH]c(=O)c3ccccc23)ccc1F)N1CCN(C(=O)C2CC2)CC1 + CCN1C(C(=O)NC23CCC(C(=O)O)(CC2)CC3)C(c2cccc(Cl)c2F)C2(C(=O)Nc3cc(Cl)ccc32)C12CCCCC2
Output line: < 5.00

----------
# Test system: 519858-162-T-J1-PDC complex spheroid growth, % test/control
# PROTOCOL NOTES: Anticancer human tumor 519858-162-T-J1-PDC cell line growth inhibition [Asc];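 further: seven day drug exposure begun three days after spheroid seeding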;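 on viability, T/C: 100% = DMSO vehicle wells and lower values mean less viable spheroid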
# SETUP CONDITIONS: second compound 0.1 µM; first compound 0.00316 µM; stronger effect = lower value
MEASUREMENT KIND: viability, T/C

Below are worked cases with known answers.
Input line: Need viability, T/C, item NC1CCC(NC2CC2c2ccccc2)CC1 (stereo not drawn) + CNC(C)C(=O)NC1CN(S(=O)(=O)c2cccc(S(=O)(=O)N3CCC4CCC(C(=O)NC(c5ccccc5)c5ccccc5)N4C(=O)C(NC(=O)C(C)NC)C3)c2)CCC2CCC(C(=O)NC(c3ccccc3)c3ccccc3)N2C1=O
Output line: 121%

Input line: Need viability, T/C, item Cn1ncnc1[C@H]1c2n[nH]c(=O)c3cc(F)cc(c23)N[C@@H]1c1ccc(F)cc1 + Cc1c(S(C)(=O)=O)c(-c2cc(F)cc(N3CCN(c4ccc(NS(=O)(=O)c5ccc(NC(CCN6CCC(C(=O)OCCCP(=O)(O)O)CC6)CSc6ccccc6)c(S(=O)(=O)C(F)(F)F)c5)cc4)CC3)c2)c(-c2ccc(Cl)cc2)n1C(C)C
Output line: 85.8%

Read the next record carefully.
Input line: Need viability, T/C, item NC1CCC(NC2CC2c2ccccc2)CC1 (stereo not drawn) + Cc1c(S(C)(=O)=O)c(-c2cc(F)cc(N3CCN(c4ccc(NS(=O)(=O)c5ccc(NC(CCN6CCC(C(=O)OCCCP(=O)(O)O)CC6)CSc6ccccc6)c(S(=O)(=O)C(F)(F)F)c5)cc4)CC3)c2)c(-c2ccc(Cl)cc2)n1C(C)C
Output line: 92.7%

----------
Quick reference for viability, T/C among some compounds
# Test system: 519858-162-T-J1-PDC complex spheroid growth, % test/control
# PROTOCOL NOTES: Anticancer human tumor 519858-162-T-J1-PDC cell line growth inhibition [Asc];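 further: seven day drug exposure begun three days after spheroid seeding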;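 on viability, T/C: 100% = DMSO vehicle wells and lower values mean less viable spheroid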
# SETUP CONDITIONS: second compound 0.0949 µM; first compound 0.1 µM; stronger effect = lower value
Report the figure in % without appending any unit label.

Input line: Need viability, T/C, item C#Cc1c(F)ccc2cc(O)cc(-c3ncc4c(N5CC6CCC(C5)N6)nc(OCC56CCCN5CC(F)C6)nc4c3F)c12 (configuration not stated) + CCN1C(C(=O)NC23CCC(C(=O)O)(CC2)CC3)C(c2cccc(Cl)c2F)C2(C(=O)Nc3cc(Cl)ccc32)C12CCCCC2
Output line: 99.2

Input line: Need viability, T/C, item O=C(c1cc(Cc2n[nH]c(=O)c3ccccc23)ccc1F)N1CCN(C(=O)C2CC2)CC1 + CCN1C(C(=O)NC23CCC(C(=O)O)(CC2)CC3)C(c2cccc(Cl)c2F)C2(C(=O)Nc3cc(Cl)ccc32)C12CCCCC2
Output line: 103
